For each entry below, report its shrunken log2 fold change value.
tested on: Escherichia coli TOP10; test: shrunken log2 fold change of peptide-encoding DNA abundance (4.5 h post-induction vs induction); higher = less antimicrobial activity (less host growth inhibition); conditions: time post-induction: 4.5 h; library: site-saturation at positions 5, 18, 19, 20
Answers are plain numbers.

Hey, can you go through the list below and give me shrunken log2 fold change for every item?
1. RRIRCRPPRLPRPRPRPPVKPRP
2. RRIRARPPRLPRPRPRPECEPRP
3. RRIRCRPPRLPRPRPRPYDNPRP
4. RRIRGRPPRLPRPRPRPRAEPRP
5. RRIRCRPPRLPRPRPRPFFMPRP
6. RRIRFRPPRLPRPRPRPHAHPRP
7. RRIRPRPPRLPRPRPRPKGTPRP

1. -0.00107
2. 0.0705
3. -0.498
4. 1.01
5. -0.201
6. -0.0397
7. 0.0309

Hey, can you go through the list below and give me shrunken log2 fold change for every item?
1. RRIRDRPPRLPRPRPRPIQHPRP
2. RRIRTRPPRLPRPRPRPPNFPRP
3. RRIRGRPPRLPRPRPRPTAEPRP
4. RRIRFRPPRLPRPRPRPFVGPRP
5. RRIRRRPPRLPRPRPRPFPRPRP
6. RRIRIRPPRLPRPRPRPECRPRP
7. RRIRMRPPRLPRPRPRPIKWPRP

[-0.444, -0.0576, 3.04, -0.0219, 0.272, 0.0513, -0.00876]

Hey, can you go through the list below and give me shrunken log2 fold change for every item?
1. RRIRQRPPRLPRPRPRPYYFPRP
2. RRIRCRPPRLPRPRPRPSNEPRP
3. RRIRRRPPRLPRPRPRPGLSPRP
4. RRIRWRPPRLPRPRPRPEYGPRP
5. RRIRDRPPRLPRPRPRPDNIPRP
6. RRIRDRPPRLPRPRPRPWAKPRP
7. RRIRDRPPRLPRPRPRPKGLPRP
8. RRIRARPPRLPRPRPRPPPDPRP

-0.661
-0.379
-0.0549
0.222
-0.112
-0.0135
0.253
1.18

Hey, can you go through the list below and give me shrunken log2 fold change for every item?
1. RRIRTRPPRLPRPRPRPIWYPRP
2. RRIRCRPPRLPRPRPRPLFMPRP
3. RRIRPRPPRLPRPRPRPYVVPRP

1: -0.601; 2: -0.368; 3: -0.307

Hey, can you go through the list below and give me shrunken log2 fold change for every item?
1. RRIRCRPPRLPRPRPRPGKQPRP
2. RRIRFRPPRLPRPRPRPGHEPRP
3. RRIRNRPPRLPRPRPRPDGQPRP
4. RRIRTRPPRLPRPRPRPSIQPRP
5. RRIRERPPRLPRPRPRPCCQPRP

1: -0.106; 2: -0.196; 3: -0.0321; 4: -0.865; 5: -0.485

Hey, can you go through the list below and give me shrunken log2 fold change for every item?
1. RRIRSRPPRLPRPRPRPHWMPRP
2. RRIRTRPPRLPRPRPRPRMVPRP
3. RRIRERPPRLPRPRPRPFEIPRP
4. RRIRRRPPRLPRPRPRPFWFPRP
5. RRIRSRPPRLPRPRPRPKMHPRP
6. RRIRRRPPRLPRPRPRPPHDPRP

0.0168
0.0186
-0.203
-0.138
0.157
1.49

Hey, can you go through the list below and give me shrunken log2 fold change for every item?
1. RRIRMRPPRLPRPRPRPPWAPRP
2. RRIRYRPPRLPRPRPRPFVSPRP
3. RRIRQRPPRLPRPRPRPSFLPRP
4. RRIRVRPPRLPRPRPRPHWLPRP
5. RRIRVRPPRLPRPRPRPEIGPRP
6. RRIRFRPPRLPRPRPRPEGPPRP

[0.911, 0.00884, -0.355, -0.291, 0.0353, 0.0494]

Hey, can you go through the list below and give me shrunken log2 fold change for every item?
1. RRIRWRPPRLPRPRPRPNFNPRP
2. RRIRSRPPRLPRPRPRPECNPRP
3. RRIRHRPPRLPRPRPRPTMRPRP

[-0.198, 0.218, 0.402]

---

test system: Escherichia coli TOP10; assay: shrunken log2 fold change of peptide-encoding DNA abundance (4.5 h post-induction vs induction); higher = less antimicrobial activity (less host growth inhibition); settings: time post-induction: 4.5 h; library: site-saturation at positions 5, 18, 19, 20
For each entry below, report its shrunken log2 fold change value.
Numbers only.

Field: example entries. Status: answers known.
RRIRPRPPRLPRPRPRPCSLPRP :: 0.527
RRIRWRPPRLPRPRPRPSLSPRP :: 1.36
RRIRMRPPRLPRPRPRPHPEPRP :: 0.414
RRIRVRPPRLPRPRPRPMLIPRP :: -0.0178
RRIRFRPPRLPRPRPRPARQPRP :: 0.379
RRIRIRPPRLPRPRPRPEDHPRP :: -0.185
RRIRHRPPRLPRPRPRPEWHPRP :: 0.0223
RRIRSRPPRLPRPRPRPPMWPRP :: 0.54

Hey, can you go through the list below and give me shrunken log2 fold change for every item?
1. RRIRWRPPRLPRPRPRPNIWPRP
2. RRIRIRPPRLPRPRPRPRPHPRP
3. RRIRKRPPRLPRPRPRPCHMPRP
4. RRIRTRPPRLPRPRPRPPGYPRP
5. RRIRARPPRLPRPRPRPHMHPRP
6. RRIRLRPPRLPRPRPRPPLYPRP

[-0.153, 1.98, -0.538, 0.0573, -0.152, 1.61]

Observed shrunken log2 fold change, Escherichia coli TOP10, RRIRVRPPRLPRPRPRPVHTPRP : -0.0364

---

test system: Escherichia coli TOP10; test: shrunken log2 fold change of peptide-encoding DNA abundance (4.5 h post-induction vs induction); higher = less antimicrobial activity (less host growth inhibition); conditions: time post-induction: 4.5 h; library: site-saturation at positions 5, 18, 19, 20
# shrunken log2 fold change >= 0.006 gives met, anything below gives not met

Known results for sequences:
RRIRIRPPRLPRPRPRPSDSPRP :: not met
RRIRIRPPRLPRPRPRPPSAPRP :: met
RRIRVRPPRLPRPRPRPPEPPRP :: met

Quick check: does RRIRWRPPRLPRPRPRPDIVPRP have shrunken log2 fold change greater than or equal to 0.006?
met

Quick check: does RRIRRRPPRLPRPRPRPSAAPRP have shrunken log2 fold change greater than or equal to 0.006?
met

Quick check: does RRIRIRPPRLPRPRPRPTSEPRP have shrunken log2 fold change greater than or equal to 0.006?
not met

Quick check: does RRIRTRPPRLPRPRPRPRFYPRP have shrunken log2 fold change greater than or equal to 0.006?
not met

Quick check: does RRIRGRPPRLPRPRPRPIDKPRP have shrunken log2 fold change greater than or equal to 0.006?
met

---

tested on: Escherichia coli TOP10; assay: shrunken log2 fold change of peptide-encoding DNA abundance (4.5 h post-induction vs induction); higher = less antimicrobial activity (less host growth inhibition); conditions: time post-induction: 4.5 h; library: site-saturation at positions 5, 18, 19, 20
observed property: shrunken log2 fold change
One number for each entry.

RRIRVRPPRLPRPRPRPWTKPRP :: -0.106

Hey, can you go through the list below and give me shrunken log2 fold change for every item?
1. RRIRDRPPRLPRPRPRPFVHPRP
2. RRIRMRPPRLPRPRPRPQYIPRP
3. RRIRFRPPRLPRPRPRPHGAPRP
4. RRIRHRPPRLPRPRPRPACKPRP

1. -0.0617
2. -0.0206
3. 0.109
4. -0.164

Hey, can you go through the list below and give me shrunken log2 fold change for every item?
1. RRIRVRPPRLPRPRPRPKTMPRP
2. RRIRNRPPRLPRPRPRPNARPRP
3. RRIRLRPPRLPRPRPRPAWTPRP
4. RRIRLRPPRLPRPRPRPHKCPRP
5. RRIRLRPPRLPRPRPRPKTGPRP

1: 0.196; 2: 0.0522; 3: 0.218; 4: -0.0456; 5: 0.25

---

For each entry below, report its shrunken log2 fold change value.
test system: Escherichia coli TOP10; test: shrunken log2 fold change of peptide-encoding DNA abundance (4.5 h post-induction vs induction); higher = less antimicrobial activity (less host growth inhibition); settings: time post-induction: 4.5 h; library: site-saturation at positions 5, 18, 19, 20;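 further: peptides expressed intracellularly from a pBAD plasmid library in pooled LB shake-flask culture, induced with 0.3% L-arabinose, DNA abundance read by NGS, three biological replicates, DESeq2 with apeglm shrinkage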
Numbers only.

Hey, can you go through the list below and give me shrunken log2 fold change for every item?
1. RRIRYRPPRLPRPRPRPEPSPRP
2. RRIRTRPPRLPRPRPRPTARPRP
3. RRIRKRPPRLPRPRPRPDIHPRP
4. RRIRARPPRLPRPRPRPMQSPRP

1: -0.0733; 2: 0.0618; 3: 0.167; 4: 0.43

Hey, can you go through the list below and give me shrunken log2 fold change for every item?
1. RRIRLRPPRLPRPRPRPTRCPRP
2. RRIRERPPRLPRPRPRPKPYPRP
3. RRIRPRPPRLPRPRPRPMQFPRP
4. RRIRTRPPRLPRPRPRPASNPRP
5. RRIRWRPPRLPRPRPRPLVEPRP

1. -0.119
2. 0.082
3. 0.231
4. -0.00255
5. 0.2

Hey, can you go through the list below and give me shrunken log2 fold change for every item?
1. RRIRRRPPRLPRPRPRPFLFPRP
2. RRIRPRPPRLPRPRPRPDTLPRP
3. RRIRSRPPRLPRPRPRPKKPPRP
4. RRIRCRPPRLPRPRPRPNMSPRP
5. RRIRERPPRLPRPRPRPFRHPRP
6. RRIRFRPPRLPRPRPRPARYPRP
7. RRIRTRPPRLPRPRPRPTMCPRP

0.0785
-0.284
0.0165
-0.204
0.0628
0.153
-0.416

Hey, can you go through the list below and give me shrunken log2 fold change for every item?
1. RRIRGRPPRLPRPRPRPYRFPRP
2. RRIRLRPPRLPRPRPRPSYGPRP
3. RRIRNRPPRLPRPRPRPCIWPRP
4. RRIRNRPPRLPRPRPRPNLAPRP
5. RRIRYRPPRLPRPRPRPSSLPRP
6. RRIRKRPPRLPRPRPRPFMLPRP
7. RRIRLRPPRLPRPRPRPKGPPRP

1. 0.0893
2. -0.585
3. 0.131
4. -0.137
5. -0.0385
6. -0.0682
7. 0.28
